Hey, just so you know, these numbers are from patent US8530460B2.

Target: human ACC2 (Homo sapiens (Human), UniProt O00763)
Sequence (O00763 129-2458): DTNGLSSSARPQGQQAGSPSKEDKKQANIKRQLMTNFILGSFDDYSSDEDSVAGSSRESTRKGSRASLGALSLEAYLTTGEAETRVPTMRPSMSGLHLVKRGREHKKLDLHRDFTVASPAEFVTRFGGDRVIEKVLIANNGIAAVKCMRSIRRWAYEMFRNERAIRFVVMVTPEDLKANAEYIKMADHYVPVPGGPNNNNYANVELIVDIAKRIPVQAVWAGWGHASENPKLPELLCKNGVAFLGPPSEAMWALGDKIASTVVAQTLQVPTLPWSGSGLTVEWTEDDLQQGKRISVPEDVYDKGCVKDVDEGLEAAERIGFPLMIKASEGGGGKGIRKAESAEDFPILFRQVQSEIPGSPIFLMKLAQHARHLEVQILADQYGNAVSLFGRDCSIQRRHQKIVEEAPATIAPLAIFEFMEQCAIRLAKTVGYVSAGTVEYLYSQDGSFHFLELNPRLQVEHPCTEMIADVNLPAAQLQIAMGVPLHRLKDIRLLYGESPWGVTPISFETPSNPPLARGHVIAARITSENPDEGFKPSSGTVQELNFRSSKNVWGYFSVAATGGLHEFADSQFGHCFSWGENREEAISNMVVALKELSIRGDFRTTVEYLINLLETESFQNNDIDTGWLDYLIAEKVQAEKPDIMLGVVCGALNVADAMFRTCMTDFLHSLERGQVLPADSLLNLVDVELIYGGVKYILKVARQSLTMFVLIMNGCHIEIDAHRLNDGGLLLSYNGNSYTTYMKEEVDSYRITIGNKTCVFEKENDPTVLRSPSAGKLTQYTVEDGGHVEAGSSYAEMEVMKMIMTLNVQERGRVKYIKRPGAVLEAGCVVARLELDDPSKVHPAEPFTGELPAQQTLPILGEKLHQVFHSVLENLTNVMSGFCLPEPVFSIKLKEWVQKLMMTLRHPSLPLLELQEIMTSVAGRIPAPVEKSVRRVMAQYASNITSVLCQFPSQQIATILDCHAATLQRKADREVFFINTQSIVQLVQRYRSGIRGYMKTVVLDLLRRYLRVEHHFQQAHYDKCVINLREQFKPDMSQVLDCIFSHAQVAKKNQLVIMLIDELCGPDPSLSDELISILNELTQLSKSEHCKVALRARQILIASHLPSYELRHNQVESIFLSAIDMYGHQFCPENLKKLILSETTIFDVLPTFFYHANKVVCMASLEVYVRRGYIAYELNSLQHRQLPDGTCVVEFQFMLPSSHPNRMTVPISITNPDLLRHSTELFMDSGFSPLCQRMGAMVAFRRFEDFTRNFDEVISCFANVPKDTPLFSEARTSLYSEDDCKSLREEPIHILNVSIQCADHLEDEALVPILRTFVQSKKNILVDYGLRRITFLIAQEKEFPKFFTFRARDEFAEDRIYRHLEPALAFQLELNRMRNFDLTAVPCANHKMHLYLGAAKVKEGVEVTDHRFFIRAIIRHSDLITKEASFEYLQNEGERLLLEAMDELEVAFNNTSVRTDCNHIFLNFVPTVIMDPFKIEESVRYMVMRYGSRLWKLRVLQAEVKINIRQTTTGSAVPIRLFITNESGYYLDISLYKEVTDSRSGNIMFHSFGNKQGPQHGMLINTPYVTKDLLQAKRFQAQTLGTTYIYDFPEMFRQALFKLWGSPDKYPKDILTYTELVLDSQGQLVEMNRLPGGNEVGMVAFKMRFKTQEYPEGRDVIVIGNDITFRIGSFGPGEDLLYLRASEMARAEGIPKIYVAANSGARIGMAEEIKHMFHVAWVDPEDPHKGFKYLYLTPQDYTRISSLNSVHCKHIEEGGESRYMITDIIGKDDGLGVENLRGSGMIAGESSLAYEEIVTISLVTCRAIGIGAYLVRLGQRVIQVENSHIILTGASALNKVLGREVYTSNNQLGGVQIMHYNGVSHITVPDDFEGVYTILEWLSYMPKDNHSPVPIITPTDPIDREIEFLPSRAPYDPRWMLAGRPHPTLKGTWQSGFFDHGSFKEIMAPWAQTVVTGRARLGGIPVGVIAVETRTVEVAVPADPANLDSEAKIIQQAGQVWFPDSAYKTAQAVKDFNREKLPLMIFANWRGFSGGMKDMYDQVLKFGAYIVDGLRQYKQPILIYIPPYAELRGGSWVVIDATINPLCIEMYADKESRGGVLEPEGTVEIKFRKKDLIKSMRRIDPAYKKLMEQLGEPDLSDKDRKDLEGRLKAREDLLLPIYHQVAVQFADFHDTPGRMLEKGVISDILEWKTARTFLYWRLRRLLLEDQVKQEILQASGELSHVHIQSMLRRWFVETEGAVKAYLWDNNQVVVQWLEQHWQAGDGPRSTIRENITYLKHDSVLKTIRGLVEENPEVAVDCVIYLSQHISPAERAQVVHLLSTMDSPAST
Assay: ACC2 assay (spectrophotometric 384 well assay, NADH-linked coupled lactate dehydrogenase/pyruvate kinase)
Format: biochemical
VALUE KIND: IC50 (µM)
# unit: µM | format: bare number

Exercise: State the recorded IC50 for this entry: CC(=O)N[C@@H](C)c1ccc(OC2CN(c3ccc(OCC4CC4)nc3)C2)cc1
Solution: 0.88

* * *

Target: human ACC2 (Homo sapiens (Human))
Assay: ACC2 assay (spectrophotometric 384 well assay, NADH-linked coupled lactate dehydrogenase/pyruvate kinase)
Assay type: biochemical
Conditions: hACC2 construct lacking 128 N-terminal amino acids; 25° C., 340 nm, 15 minutes
Method: Spectrophotometric 384 Well Assay Malonyl CoA formation by acetyl CoA carboxylases is stoichometrically linked to the consumption of ATP. ACC2 activity is measured in a NADH-linked kinetic method measuring ADP generated during the ACC reaction using a coupled lactate dehydrogenase/pyruvate kinase reaction. For biological testing, a human ACC2 construct which lacks the 128 amino acids at the N-terminus for increased solubility (nt 385-6966 in Genbank entry AJ575592) is cloned. […]
Below, each of the compounds is paired with its reported IC50 value.
Supply the numeric figure in µM, leaving out any unit text.

Would you please look over these solved cases?
INSERT INTO measurements (compound, number) VALUES
  ('CCNC(=O)N[C@@H](C)c1ccc(OC2CN(c3ncc(C4CC4)cn3)C2)cc1 [Example 10.2]', 1.17),
  ('CC(=O)N[C@@H](C)c1ccc(OC2CN(c3ncc(OCC4CC4(F)F)cn3)C2)cc1 (stereo partly shown) [Example 4.42]', 0.53),
  ('CC(=O)N[C@@H](C)c1ccc(OC2CN(c3cc(C(F)(F)F)cc(C)n3)C2)cc1 [Example 4.4]', 3.99);

# context switch: different compound, same IC50
Exercise: I am curious: what IC50 value has been reported for CCOc1ccc(N2CC(Oc3ccc([C@H](C)NC(=O)C4(C(F)(F)F)CC4)cc3)C2)cc1 [Example 8.21] ?
Solution: 0.3
